Reference source: ChEMBL document CHEMBL1201862

Biological target: Induced myeloid leukemia cell differentiation protein Mcl-1 (Homo sapiens)
Sequence (Q07820 whole entry): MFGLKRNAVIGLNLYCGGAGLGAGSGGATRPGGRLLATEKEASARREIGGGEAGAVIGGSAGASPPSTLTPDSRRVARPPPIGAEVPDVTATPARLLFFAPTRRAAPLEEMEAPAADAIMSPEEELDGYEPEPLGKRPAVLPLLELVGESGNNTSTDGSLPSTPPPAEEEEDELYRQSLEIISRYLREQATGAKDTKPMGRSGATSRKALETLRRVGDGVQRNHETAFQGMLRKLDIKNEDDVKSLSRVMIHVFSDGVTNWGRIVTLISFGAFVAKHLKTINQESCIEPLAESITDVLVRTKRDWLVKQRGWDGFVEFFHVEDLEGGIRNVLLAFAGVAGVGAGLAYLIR
Assay type: functional
The source made the active and inactive calls.
Attribute Measured: IC50

Compound: CC1=NN(C(N)=S)C(=O)C1N=Nc1ccc(O)cc1 (configuration not stated)
System Tested: Induced myeloid leukemia cell differentiation protein Mcl-1 (Homo sapiens)
Result: 9.66 µM (active)

Compound: COc1ccc(C(=O)c2sc3nc(-c4ccc(OC)cc4)ccc3c2N)cc1
System Tested: Induced myeloid leukemia cell differentiation protein Mcl-1 (Homo sapiens)
Result: 2.99 µM (not active)

Compound: COc1ccc(-c2ccc3c(n2)sc2c(=O)[nH]c(=O)[nH]c23)cc1OC
System Tested: Induced myeloid leukemia cell differentiation protein Mcl-1 (Homo sapiens)
Result: 1.76 µM (active)

Batch request: IC50 for each of the following compounds.
1. CCc1ccc(S(=O)(=O)/N=C2\C=CC(=O)c3ccccc32)cc1
2. COc1ccc(-n2cccc2/C=C2\C(=N)N3N=C(c4ccco4)SC3=NC2=O)cc1
3. O=C(O)CCc1nc(-c2cccs2)no1
4. Cc1ccc(/C=c2\sc3nc(-c4ccco4)nn3c2=O)o1
5. O=C1NC(=S)N/C1=C/c1ccc(-c2c(Br)cc([N+](=O)[O-])cc2Br)o1
6. O=C(N=Nc1c(O)n(Cc2ccccc2)c2ccccc12)c1cc2ccccc2cc1O

Solution:
3.11 µM (active)
19.3 µM (active)
17.6 µM (not active)
4.61 µM (active)
2.48 µM (active)
5.39 µM (active)

Batch request: IC50 for each of the following compounds.
1. CN(C)c1ccc(C(CNC(=O)c2ccc(F)cc2)c2c[nH]c3ccccc23)cc1 (configuration not stated)
2. O=C(O)c1ccccc1NS(=O)(=O)c1ccc(NNC(=S)Nc2ccc(OC(F)F)cc2)c([N+](=O)[O-])c1
3. CS(=O)(=O)c1ccc(C(=O)NCCN2C(=O)S/C(=C\c3cccnc3)C2=O)cc1[N+](=O)[O-]

Solution:
1: 3.08 µM (not active); 2: 2.95 µM (active); 3: 2.17 µM (active)
